# Experimental System: Squalene synthase (Rattus norvegicus)
# Sequence (Q02769 whole entry): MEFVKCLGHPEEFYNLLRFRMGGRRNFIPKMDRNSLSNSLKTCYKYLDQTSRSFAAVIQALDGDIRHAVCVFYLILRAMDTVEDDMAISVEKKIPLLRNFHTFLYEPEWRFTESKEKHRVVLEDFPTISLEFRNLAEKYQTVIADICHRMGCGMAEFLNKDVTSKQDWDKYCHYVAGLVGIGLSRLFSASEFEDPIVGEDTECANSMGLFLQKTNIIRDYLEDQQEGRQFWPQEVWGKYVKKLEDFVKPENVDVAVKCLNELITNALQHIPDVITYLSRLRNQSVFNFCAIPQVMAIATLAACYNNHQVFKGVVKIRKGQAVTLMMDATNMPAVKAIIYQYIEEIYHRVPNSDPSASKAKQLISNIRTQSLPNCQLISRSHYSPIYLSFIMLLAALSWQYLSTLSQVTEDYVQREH
# Measurement Notes: Tested for inhibition against squalene synthase enzyme in rat liver
pIC50: −log10 of the molar value.
# if value of pIC50 reaches 8, tag rule met; if it stays below, tag rule not met

C=C(CCC12OC(C(=O)O)C(O)(C(=O)O)C(C(=O)O)(O1)[C@H](OC(=O)OCCCCCCCCCCCOc1ccccc1)[C@H]2O)[C@@H](OC(C)=O)[C@H](C)Cc1ccccc1 (some centres undefined): rule met
CC[C@H](C)C[C@H](C)CCC(=O)O[C@@H]1[C@@H](O)C2(CCCCc3ccccc3)OC(C(=O)O)C(O)(C(=O)O)C1(C(=O)O)O2 (some centres undefined): rule not met

[ask] For this molecule, is measured pIC50 8 or higher? C=C(CCC12OC(C(=O)O)C(O)(C(=O)O)C(C(=O)O)(O1)[C@H](OC(=O)SC(C)C)[C@H]2O)[C@@H](OC(C)=O)[C@H](C)Cc1ccccc1 (some centres undefined)
[reply] rule met

[ask] For this molecule, is measured pIC50 8 or higher? CC(=O)OC(CCCC12OC(C(=O)O)C(O)(C(=O)O)C(C(=O)O)(O1)[C@H](OC(=O)CC/C=C/C(C)CCCc1ccccc1)[C@H]2O)C(C)Cc1ccccc1 (some centres undefined)
[reply] rule met

[ask] For this molecule, is measured pIC50 8 or higher? C=C(CCC12OC(C(=O)O)C(O)(C(=O)O)C(C(=O)O)(O1)[C@H](OC(C)=O)[C@H]2O)[C@@H](OC(C)=O)[C@H](C)Cc1ccccc1 (some centres undefined)
[reply] rule not met
